- study target: UniProtKB Q13451
- Sequence (Q13451 42-130 limits assumed): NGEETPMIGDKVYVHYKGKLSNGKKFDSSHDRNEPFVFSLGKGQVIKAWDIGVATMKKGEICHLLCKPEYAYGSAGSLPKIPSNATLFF
- protocol: Fluorescence polarization assay, binding to FK1 domain of FKBP51
- test parameters: read-out: FKBP 51 FK1 % inhibition
# inhibition at 5 µM values compiled below
Numeric answer only, unit % assumed.

Check out these entries, answers already filled in.
COc1ccc(CC[C@@H](OC(=O)[C@@H]2CCCCN2S(=O)(=O)c2cccc(Cl)c2)c2cccc(OCC(=O)O)c2)cc1OC [Compound 2]	17.5
COc1ccc(CC[C@@H](OC(=O)[C@@H]2CCCCN2S(=O)(=O)c2ccoc2)c2cccc(OCC(=O)O)c2)cc1OC [Compound 53]	2
COc1ccc(CC[C@@H](OC(=O)[C@@H]2CCCCN2S(=O)(=O)c2ccc(Cl)cc2)c2cccc(OCC(=O)O)c2)cc1OC [Compound 36]	11.7
COc1ccc(CC[C@@H](OC(=O)[C@@H]2CCCCN2S(=O)(=O)c2ccc(C)cc2)c2cccc(OCC(=O)O)c2)cc1OC [Compound 63]	3.2

response.value for COc1ccc(CC[C@@H](OC(=O)[C@@H]2CCCCN2S(=O)(=O)c2cccnc2)c2cccc(OCC(=O)O)c2)cc1OC [Compound 42] (field: inhibition at 5 µM) = 6.6

* * *

- study target: UniProt Q13451
- Sequence (Q13451 42-130 limits assumed): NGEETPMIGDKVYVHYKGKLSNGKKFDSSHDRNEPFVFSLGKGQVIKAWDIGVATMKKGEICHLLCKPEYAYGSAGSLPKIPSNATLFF
property: IC50

IC50 reported for this molecule CCOC(=O)C1CCCCN1S(=O)(=O)Cc1ccccc1 (stereo not drawn) [Ref. 1, reference compound] : > 100 µM

Measured IC50, CCOC(=O)C1CCCCN1S(=O)(=O)c1cccc([N+](=O)[O-])c1 (stereo not drawn) [Ref. 2, reference compound] : > 100 µM

* * *

- study target: human FKBP52FK1 (Homo sapiens, UniProt Q02790)
- protocol: Fluorescence polarization assay, binding to FK1 domain of FKBP52
- test parameters: at a concentration of 5 μM; library testing; read-out: FKBP52 FK1 % inhibition
property: inhibition at 5 µM (%)
Write the value in % as a bare number.

Some solved entries appear below for comparison.
COc1ccc(CC[C@@H](OC(=O)[C@@H]2CCCCN2S(=O)(=O)c2ccoc2)c2cccc(OCC(=O)O)c2)cc1OC	5.7
COc1ccc(CC[C@@H](OC(=O)[C@@H]2CCCCN2S(=O)(=O)c2ccc3c(c2)N(C)CCO3)c2cccc(OCC(=O)O)c2)cc1OC	6.6
COc1ccc(CC[C@@H](OC(=O)[C@@H]2CCCCN2S(=O)(=O)c2cc3ccccc3o2)c2cccc(OCC(=O)O)c2)cc1OC	6.6
COc1ccc(CC[C@@H](OC(=O)[C@@H]2CCCCN2S(=O)(=O)c2ccccc2Cl)c2cccc(OCC(=O)O)c2)cc1OC	9.5
COc1ccc(CC[C@@H](OC(=O)[C@@H]2CCCCN2S(=O)(=O)c2cccc(-c3nnc(C)o3)c2)c2cccc(OCC(=O)O)c2)cc1OC	3.8
COc1ccc(CC[C@@H](OC(=O)[C@@H]2CCCCN2S(=O)(=O)c2ccc(F)cc2)c2cccc(OCC(=O)O)c2)cc1OC	6.6

Summary for this molecule, COc1ccc(CC[C@@H](OC(=O)[C@@H]2CCCCN2S(=O)(=O)c2ccc(-c3ccccc3)s2)c2cccc(OCC(=O)O)c2)cc1OC : inhibition at 5 µM is 9.5

inhibition at 5 µM measured on COc1ccc(CC[C@@H](OC(=O)[C@@H]2CCCCN2S(=O)(=O)c2ccc(-c3ncccn3)cc2)c2cccc(OCC(=O)O)c2)cc1OC = 15.2

Recorded inhibition at 5 µM (molecule COc1ccc(CC[C@@H](OC(=O)[C@@H]2CCCCN2S(=O)(=O)c2c(Cl)cccc2Cl)c2cccc(OCC(=O)O)c2)cc1OC ): 9.5

Summary for this molecule, COc1ccc(CC[C@@H](OC(=O)[C@@H]2CCCCN2S(=O)(=O)c2ccc(C(F)(F)F)c(Cl)c2)c2cccc(OCC(=O)O)c2)cc1OC : inhibition at 5 µM is 11.4

Entry COc1ccc(CC[C@@H](OC(=O)[C@@H]2CCCCN2S(=O)(=O)c2ccc3c(ccn3C)c2)c2cccc(OCC(=O)O)c2)cc1OC — recorded inhibition at 5 µM = 10.4

* * *

- study target: human FKBP52FK1 (Homo sapiens, UniProt Q02790)
- Sequence (Q02790 50-138 limits assumed): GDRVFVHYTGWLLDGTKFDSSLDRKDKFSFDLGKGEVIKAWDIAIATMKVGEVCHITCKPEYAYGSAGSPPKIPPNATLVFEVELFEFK
pIC50: −log10 of the molar value.
property: pIC50

Short answer for COc1ccc(CCCOC(=O)C2CCCCN2S(=O)(=O)Cc2ccccc2)cc1OC (stereo not drawn) [Ref. 3, reference compound] : pIC50 was < 4.00

Entry CCOC(=O)C1CCCCN1S(=O)(=O)Cc1ccccc1 (stereo not drawn) [Ref. 1, reference compound] ; pIC50 = < 4.00

Item: O=C(OCCCc1cccnc1)C1CCCCN1S(=O)(=O)c1cccc([N+](=O)[O-])c1 (stereo not drawn) [Ref. 4, reference compound] | pIC50: < 4.00

* * *

- study target: human FKBP51FK1 (Homo sapiens, UniProt Q13451)
- Sequence (Q13451 42-130 limits assumed): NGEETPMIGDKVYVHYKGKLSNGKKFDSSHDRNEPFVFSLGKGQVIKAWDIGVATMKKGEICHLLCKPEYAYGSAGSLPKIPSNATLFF
- protocol: Fluorescence polarization assay, binding to FK1 domain of FKBP51
- test parameters: binding affinity, fluorescence polarization assay
property: pIC50
Please keep in mind that pIC50 is minus log10 of the molar concentration; only the number is needed.

COc1ccc(CC[C@@H](OC(=O)[C@@H]2CCCCN2S(=O)(=O)c2cc(Cl)cc(Cl)c2)c2cccc(OCC(=O)O)c2)cc1OC [Compound 13]	4.65

API: the following record is the query input.
Input COc1ccc(CC[C@@H](OC(=O)[C@@H]2CCCCN2S(=O)(=O)c2cccc(Cl)c2)c2cccc(OCC(=O)O)c2)cc1OC [Compound 2] . Output pIC50: 4.51
